MEASUREMENT TARGET: integrin αvβ6 on NIH3T3β6 cells (NIH3T3 cells transfected with β6)
METHOD NOTES: FACS on NIH3T3β6 cells, geometric MFI against antibody concentration
READOUT KIND: EC50 relative to chimeric antibody (ratio to chimeric antibody)
// no unit string in output, number only

Recorded EC50 relative to chimeric antibody (ratio to chimeric antibody) for humanized 1A8 antibody VH3/Vκ3 (antibody, IgG1, V domains shown) VH: QVQLVQSGAEVKKPGASVKVSCKGSSYTFTDYTMHWVRLASAKTLEWIGVIDTYYGKTNYNQKFEGRATMTVDKSSSTAYMELSSLRSEDTAVYYCARGGFRRGDRPSLRYAMDSWGQGTLVTVSS VL: DIVMTQSPDSLAVSLGERATINCRASQSVSISTYSYIHWFQQKPGQPPKLLIKYASNLESGVPDRFSGSGSGTDFTLKISRVEAEDVGIYYCQHSWEIPYTFGGGTKVEIK , please?
2.41

# repeat for humanized 1A8 antibody VH2/Vκ3 (antibody, IgG1, V domains shown) VH: QVQLVQSGAEVKKPGASVKVSCKGSSYTFTDYTMHWVKLASAKTLEWIGVIDTYYGKTNYNQKFEGRATMTVDKSSSTAYMELSSLRSEDTAVYYCARGGFRRGDRPSLRYAMDSWGQGTLVTVSS VL: DIVMTQSPDSLAVSLGERATINCRASQSVSISTYSYIHWFQQKPGQPPKLLIKYASNLESGVPDRFSGSGSGTDFTLKISRVEAEDVGIYYCQHSWEIPYTFGGGTKVEIK
2.46

Values from patent US20160031992A1
